Test system: α2 adrenergic receptors of the central nervous system
experimental_protocol: inhibition of the antihypertensive action of clonidine in spontaneously hypertensive rats (SHR)
Format: in vivo, rat
condition_notes: 1 mg/kg p.o., clonidine 50 μg/kg s.c.
Experimental: In the first study, carried out upon unanaesthetized spontaneously hypertensive rats (SHR rats), the ability of the compounds of the present invention to inhibit the antihypertensive action of clonidine was determined. […] The arterial pressure is measured in the region of the median coccygeal artery according to the method of J. Roba, A. F. DeSchaepdrijver, Exp. Anim., 4, 147-162 (1971). […]
The threshold is inclusive: α2 Antagonist (% Inhibition of the Antihypertension of Clonidine) of exactly 60% counts as label 1; values below receive label 0.

Exam item: Kindly determine if α2 Antagonist (% Inhibition of the Antihypertension of Clonidine) recorded for Cc1ccc(C(Cc2c[nH]cn2)c2ccccc2)c(C)c1 (stereo not shown) is above or exactly 60%.
Marked response: label 1

Exam item: Kindly determine if α2 Antagonist (% Inhibition of the Antihypertension of Clonidine) recorded for Fc1ccc(C(Cc2c[nH]cn2)c2ccccc2)cc1 (stereo not shown) is above or exactly 60%.
Marked response: label 1

Exam item: Kindly determine if α2 Antagonist (% Inhibition of the Antihypertension of Clonidine) recorded for Cc1cccc(C(Cc2c[nH]cn2)c2ccccc2)c1 (stereo not shown) is above or exactly 60%.
Marked response: label 1

Exam item: Kindly determine if α2 Antagonist (% Inhibition of the Antihypertension of Clonidine) recorded for Cc1ccc(C(Cc2c[nH]cn2)c2ccccc2)cc1 (stereo not shown) is above or exactly 60%.
Marked response: label 0

Exam item: Kindly determine if α2 Antagonist (% Inhibition of the Antihypertension of Clonidine) recorded for COC(c1c[nH]cn1)C(c1ccccc1)c1ccccc1 (stereo not shown) is above or exactly 60%.
Marked response: label 1

Exam item: Kindly determine if α2 Antagonist (% Inhibition of the Antihypertension of Clonidine) recorded for CC(Cc1c[nH]cn1)(c1ccccc1)c1ccccc1 [Compound 10, 4(5)-[1-(2,2-diphenyl)-propyl]imidazole] is above or exactly 60%.
Marked response: label 0

Exam item: Kindly determine if α2 Antagonist (% Inhibition of the Antihypertension of Clonidine) recorded for CC(=C(c1ccccc1)c1ccccc1)c1c[nH]cn1 is above or exactly 60%.
Marked response: label 1

Exam item: Kindly determine if α2 Antagonist (% Inhibition of the Antihypertension of Clonidine) recorded for COc1ccc(C(Cc2c[nH]cn2)c2ccccc2)cc1 (stereo not shown) is above or exactly 60%.
Marked response: label 0

Exam item: Kindly determine if α2 Antagonist (% Inhibition of the Antihypertension of Clonidine) recorded for CCCC(OC)(c1c[nH]cn1)C(c1ccccc1)c1ccccc1 (stereo not shown) is above or exactly 60%.
Marked response: label 1

Exam item: Kindly determine if α2 Antagonist (% Inhibition of the Antihypertension of Clonidine) recorded for OC(c1c[nH]cn1)C(c1ccccc1)c1ccccc1 (stereo not shown) is above or exactly 60%.
Marked response: label 0

* * *

Provide the recorded % Inhibition of the Specific Binding at 10^-7 M for α1 Recep. for the entries that follow.
System: α1 -adrenergic receptors
experimental_protocol: binding to α1-adrenergic receptors on rat brain homogenates (3H-WB 4101)
condition_notes: 1.6 nM 3H-WB 4101
Lab book: enter the figure in %, no units written.

Exam item: Please look up its % Inhibition of the Specific Binding at 10^-7 M for α1 Recep.: CCCC(c1c[nH]cn1)C(c1ccccc1)c1ccccc1 (stereo not drawn) [Compound 19, 4(5)-[2-(1,1-diphenyl)pentyl]imidazole]
Marked response: 4

Exam item: Please look up its % Inhibition of the Specific Binding at 10^-7 M for α1 Recep.: CCCC(OC)(c1c[nH]cn1)C(c1ccccc1)c1ccccc1 (stereo not drawn)
Marked response: 0

Exam item: Please look up its % Inhibition of the Specific Binding at 10^-7 M for α1 Recep.: Cc1ccc(C(Cc2c[nH]cn2)c2ccccc2)cc1C (stereo not drawn)
Marked response: 4

Exam item: Please look up its % Inhibition of the Specific Binding at 10^-7 M for α1 Recep.: C(=C(c1ccccc1)c1ccccc1)c1c[nH]cn1
Marked response: 6

Exam item: Please look up its % Inhibition of the Specific Binding at 10^-7 M for α1 Recep.: COc1ccc(C(Cc2c[nH]cn2)c2ccc(OC)cc2)cc1
Marked response: 0

Exam item: Please look up its % Inhibition of the Specific Binding at 10^-7 M for α1 Recep.: Cc1ccccc1C(Cc1c[nH]cn1)c1ccccc1 (stereo not drawn)
Marked response: 0

Exam item: Please look up its % Inhibition of the Specific Binding at 10^-7 M for α1 Recep.: Cc1cccc(C(Cc2c[nH]cn2)c2ccccc2)c1 (stereo not drawn)
Marked response: 4

Exam item: Please look up its % Inhibition of the Specific Binding at 10^-7 M for α1 Recep.: c1ccc(C(Cc2c[nH]cn2)c2ccccc2)cc1
Marked response: 17

Exam item: Please look up its % Inhibition of the Specific Binding at 10^-7 M for α1 Recep.: CC(c1c[nH]cn1)C(c1ccccc1)c1ccccc1 (stereo not drawn)
Marked response: 4

* * *

Provide the recorded EC50 for the entries that follow.
test_system: α2 -adrenergic receptors (Cavia porcellus, UniProt Q60474)
Construct: from tissue; host or cells: isolated guinea pig ileum
Sequence (Q60474 1-464): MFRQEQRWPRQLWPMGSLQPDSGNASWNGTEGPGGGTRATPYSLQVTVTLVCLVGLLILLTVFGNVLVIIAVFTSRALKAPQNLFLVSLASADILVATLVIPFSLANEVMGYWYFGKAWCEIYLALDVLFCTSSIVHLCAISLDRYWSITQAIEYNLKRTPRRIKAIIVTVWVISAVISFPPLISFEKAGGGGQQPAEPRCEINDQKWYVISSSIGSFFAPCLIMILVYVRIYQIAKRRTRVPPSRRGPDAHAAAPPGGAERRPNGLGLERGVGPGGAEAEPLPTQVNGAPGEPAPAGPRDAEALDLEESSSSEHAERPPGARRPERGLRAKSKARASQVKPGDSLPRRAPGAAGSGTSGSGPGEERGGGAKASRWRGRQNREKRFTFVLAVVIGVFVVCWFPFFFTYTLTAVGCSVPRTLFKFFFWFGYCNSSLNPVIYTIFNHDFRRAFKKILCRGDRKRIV
experimental_protocol: α2 antagonist and α2 agonist activity in isolated guinea pig ileum (clonidine)
condition_notes: 50% of maximum inhibition obtained with clonidine, read-out: α2 Agonist Activity (-log ED50) (converted)

Exam item: Please look up its EC50: c1ccc(C(Cc2c[nH]cn2)c2ccccc2)cc1 [Compound 1, 4(5)-(2,2-diphenylethyl)-imidazole]
Marked response: 3.16 µM

Exam item: Please look up its EC50: Cc1cccc(C(Cc2c[nH]cn2)c2ccccc2)c1 (stereo not drawn) [Compound 9]
Marked response: 2.51 µM

Exam item: Please look up its EC50: Clc1ccccc1C(Cc1c[nH]cn1)c1ccccc1 (stereo not drawn) [Compound 13]
Marked response: 3.16 µM

Exam item: Please look up its EC50: Cc1ccccc1C(Cc1c[nH]cn1)c1ccccc1 (stereo not drawn) [Compound 12]
Marked response: 3.98 µM

Exam item: Please look up its EC50: COc1ccc(C(Cc2c[nH]cn2)c2ccccc2)cc1 (stereo not drawn) [Compound 17]
Marked response: 10 µM

Exam item: Please look up its EC50: Fc1ccc(C(Cc2c[nH]cn2)c2ccccc2)cc1 (stereo not drawn) [Compound 14]
Marked response: 6.31 µM

Exam item: Please look up its EC50: Cc1ccc(C(Cc2c[nH]cn2)c2ccccc2)cc1 (stereo not drawn) [Compound 21]
Marked response: 5.01 µM

Exam item: Please look up its EC50: Cc1ccc(C)c(C(Cc2c[nH]cn2)c2ccccc2)c1 (stereo not drawn) [Compound 16]
Marked response: 2 µM

Exam item: Please look up its EC50: Fc1ccc(C(Cc2c[nH]cn2)c2ccccc2F)cc1 (stereo not drawn) [Compound 15]
Marked response: 5.01 µM

Exam item: Please look up its EC50: CC(=C(c1ccccc1)c1ccccc1)c1c[nH]cn1 [Compound 2]
Marked response: 2.51 µM

Exam item: Please look up its EC50: Cc1[nH]cnc1CC(c1ccccc1)c1ccccc1 [Compound 7]
Marked response: 2 µM

Exam item: Please look up its EC50: CC(c1c[nH]cn1)C(c1ccccc1)c1ccccc1 (stereo not drawn) [Compound 4]
Marked response: > 3.16 µM

* * *

test_system: α2 -adrenergic receptors (Rattus norvegicus)
Construct: from tissue; host or cells: rat brain homogenates
Sequence (P22909 1-465): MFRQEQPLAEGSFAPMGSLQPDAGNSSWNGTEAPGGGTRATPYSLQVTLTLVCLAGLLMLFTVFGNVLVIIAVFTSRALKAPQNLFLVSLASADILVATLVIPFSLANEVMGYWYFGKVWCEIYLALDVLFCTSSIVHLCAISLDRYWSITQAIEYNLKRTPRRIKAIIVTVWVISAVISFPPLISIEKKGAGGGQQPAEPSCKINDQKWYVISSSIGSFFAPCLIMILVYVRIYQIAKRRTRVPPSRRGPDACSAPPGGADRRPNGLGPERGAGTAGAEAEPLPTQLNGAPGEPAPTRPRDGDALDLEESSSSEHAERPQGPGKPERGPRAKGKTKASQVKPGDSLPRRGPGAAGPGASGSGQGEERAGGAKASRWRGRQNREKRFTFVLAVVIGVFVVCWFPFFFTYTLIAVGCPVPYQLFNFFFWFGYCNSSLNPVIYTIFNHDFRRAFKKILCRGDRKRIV
experimental_protocol: binding to α2-adrenergic receptors on rat brain homogenates (3H-p. aminoclonidine)
condition_notes: 10^-7 M; rat brain homogenates; 0.7 nM 3H-p. aminoclonidine; read-out: % Inhibition of the Specific Binding at 10^-7 M for α2 Recep.
observable: inhibition at 0.1 µM (%)
Lab book: enter the figure in %, no units written.

Exam item: Please look up its inhibition at 0.1 µM: Cc1cccc(C(Cc2c[nH]cn2)c2ccccc2)c1 (stereo not shown)
Marked response: 85

Exam item: Please look up its inhibition at 0.1 µM: CC(Cc1c[nH]cn1)(c1ccccc1)c1ccccc1 [Compound 10, 4(5)-[1-(2,2-diphenyl)-propyl]imidazole]
Marked response: 6

Exam item: Please look up its inhibition at 0.1 µM: CC(=C(c1ccccc1)c1ccccc1)c1c[nH]cn1
Marked response: 43

Exam item: Please look up its inhibition at 0.1 µM: C(=C(c1ccccc1)c1ccccc1)c1c[nH]cn1
Marked response: 9

Exam item: Please look up its inhibition at 0.1 µM: Cc1ccc(C(Cc2c[nH]cn2)c2ccccc2)cc1C (stereo not shown)
Marked response: 22

Exam item: Please look up its inhibition at 0.1 µM: Fc1ccc(C(Cc2c[nH]cn2)c2ccccc2F)cc1 (stereo not shown)
Marked response: 77

Exam item: Please look up its inhibition at 0.1 µM: Cc1ccccc1C(Cc1c[nH]cn1)c1ccccc1 (stereo not shown)
Marked response: 71

Exam item: Please look up its inhibition at 0.1 µM: O=C(O)c1ccccc1C(Cc1c[nH]cn1)c1ccccc1 (stereo not shown)
Marked response: 1

Exam item: Please look up its inhibition at 0.1 µM: Clc1ccccc1C(Cc1c[nH]cn1)c1ccccc1 (stereo not shown)
Marked response: 81

Exam item: Please look up its inhibition at 0.1 µM: COC(c1c[nH]cn1)C(c1ccccc1)c1ccccc1 (stereo not shown)
Marked response: 0

The values you see were collected from patent US4738979A.
